ASSAY_TEXT: self-splicing fitness, log relative to wild type (ln ratio); higher = more splicing; Tetrahymena group I intron in knt gene, E. coli kanamycin selection, DiMSum; sequences stand for … in CUCUCU…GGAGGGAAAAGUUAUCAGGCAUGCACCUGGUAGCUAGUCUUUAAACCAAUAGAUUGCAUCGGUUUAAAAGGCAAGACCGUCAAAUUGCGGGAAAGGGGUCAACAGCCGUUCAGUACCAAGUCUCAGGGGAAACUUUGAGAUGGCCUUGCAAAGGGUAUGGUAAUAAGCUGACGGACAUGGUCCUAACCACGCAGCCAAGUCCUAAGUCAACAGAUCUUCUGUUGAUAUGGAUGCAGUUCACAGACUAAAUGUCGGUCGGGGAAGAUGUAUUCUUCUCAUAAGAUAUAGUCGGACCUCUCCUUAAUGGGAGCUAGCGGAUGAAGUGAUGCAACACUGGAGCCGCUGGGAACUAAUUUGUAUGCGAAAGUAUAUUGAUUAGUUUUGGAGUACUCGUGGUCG;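 further: selection with 25 µg/mL kanamycin versus none on LB agar overnight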
CONDITION_SET: 37 °C
self-splicing fitness (ln) below 0.04 gives false (0); self-splicing fitness (ln) at or above it gives true (1).

UGUCAGCAAUAUUACGGGCA	false (0)
UUAGAGCAAUAUUACGAUAA	true (1)
UUUUAGCAAUAUUACGGAGG	false (0)
UGGAAGCAAUAUUACGGUCU	true (1)

Turning to the following sequence.
// inclusive: self-splicing fitness (ln) at least 0.04? input: UACAAGCAAUAUUACGUUAA
false (0)

---

ASSAY_TEXT: self-splicing fitness, log relative to wild type (ln ratio); higher = more splicing; Tetrahymena group I intron in knt gene, E. coli kanamycin selection, DiMSum; sequences stand for … in CUCUCU…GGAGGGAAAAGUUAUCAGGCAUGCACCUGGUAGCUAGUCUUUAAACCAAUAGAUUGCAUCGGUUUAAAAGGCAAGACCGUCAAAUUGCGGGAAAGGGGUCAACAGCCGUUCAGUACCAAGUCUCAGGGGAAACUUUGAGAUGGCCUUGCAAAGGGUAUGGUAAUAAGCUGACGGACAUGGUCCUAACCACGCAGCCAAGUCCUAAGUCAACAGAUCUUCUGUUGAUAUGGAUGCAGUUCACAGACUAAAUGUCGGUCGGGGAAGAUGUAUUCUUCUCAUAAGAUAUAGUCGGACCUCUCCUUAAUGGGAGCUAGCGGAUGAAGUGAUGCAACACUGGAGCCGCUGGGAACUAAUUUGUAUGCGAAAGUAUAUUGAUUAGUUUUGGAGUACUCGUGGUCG
CONDITION_SET: 30 °C
Assign MET whenever self-splicing fitness (ln) does not fall below -2; assign NOT MET whenever it does.

Check the entry GCGAAGCAAUAUUACGAUUU : does self-splicing fitness (ln) equal or exceed -2?
MET

In plain terms: is recorded self-splicing fitness (ln) at least -2 for UAUUAGCAAUAUUACGUUGC ?
NOT MET

Please indicate if the recorded self-splicing fitness (ln) for GCCCAGCAAUAUUACGCACC meets or exceeds -2.
MET

Please tell me: is the sequence GUGAAGCAAUAUUACGCCAU at or over -2 in terms of self-splicing fitness (ln)?
NOT MET

# bool: self-splicing fitness (ln) of AUACAGCAAUAUUACGCCUA >= -2
MET

Could you tell me if the measured self-splicing fitness (ln) of ACUGAGCAAUAUUACGUACG reaches -2 or more?
NOT MET

Reported self-splicing fitness (ln) reaches at least -2 for CAUGAGCAAUAUUACGAGGG ?
NOT MET

Please tell me: is the sequence AGUAAGCAAUAUUACGUGCU at or over -2 in terms of self-splicing fitness (ln)?
NOT MET

Origin of the recorded values: the supplement of paper PMC7877785
